Data origin: ChEMBL document CHEMBL1201862

System: IGROV-1
Assay text: NCI tumour cell line growth inhibition, 48 h
Active and inactive are the calls of the source. No stated cut-off is given here; in the data, active = GI50 up to about 1.1 µM and inactive = higher.
Outcome measure: GI50

[
  {
    "Molecule": "CN1C(C)(C)CC(=O)C(Br)C1(C)C (centres undefined)",
    "Outcome measure": "GI50",
    "Test value": "> 100 µM (inactive)"
  }
]

Q. Would you mind telling me what GI50 value was observed for `COc1ccc(/C=C2\N/C(=N/N)N=C2Cl)cc1` ?
A. > 100 µM (inactive)

Q. Would you mind telling me what GI50 value was observed for C=C1C(=O)O[C@@]23C1CC[C@@H](C)C2CC[C@@]1(C)OC31 (some centres undefined) ?
A. 11.7 µM (inactive)

Q. Would you mind telling me what GI50 value was observed for CCC(CCCCC1CC[C@H]2CC(=O)C[C@@H]12)OC (some centres undefined) ?
A. > 100 µM (inactive)

###

Tested on: 786-0
Assay text: NCI tumour cell line growth inhibition, 48 h
Activity calls are given as the source filed them. Rule as the data show it: active = GI50 up to about 1.1 µM and inactive = higher.
Your reply should match one of these outcome classes. Y = active, N = inactive

[
  {
    "Compound": "CC1=CC2=C(C)C3(CC3)[C@@](C)(O)C(=O)C2=C1",
    "Target or test system": "786-0",
    "Label": "Y"
  },
  {
    "Compound": "COc1cc([N+](=O)[O-])ccc1NC1=CC(=O)CCC1",
    "Target or test system": "786-0",
    "Label": "N"
  },
  {
    "Compound": "Cn1c2ccc(C3=NCCN3)cc2c2cc(C3=NCCN3)ccc21",
    "Target or test system": "786-0",
    "Label": "N"
  }
]

Q. Which result was noted for this compound in the test: `N#Cc1c(-c2ccc(Cl)cc2)cc(-c2nc3ccccc3[nH]2)nc1N`
A. N

Q. Which result was noted for this compound in the test: `O=C(Cn1c2ccc(Br)cc2c2nc3ccccc3nc21)NNC(=O)NC1CCCCC1`
A. N

Q. Which result was noted for this compound in the test: `Cc1cc(N(CCC#N)CCC#N)ccc1C(/N=N/c1ccc(Cl)cc1)=N\NC(=O)c1ccccc1`
A. N

Q. Which result was noted for this compound in the test: `CC1=C(NC(=O)C(=O)NNC(=O)c2ccncc2)C(=O)c2ccccc2C1=O`
A. N

Q. Which result was noted for this compound in the test: `COc1cc(/C=C(\C)c2ccc3c(c2)OCO3)cc(OC)c1OC`
A. N

###

Test system: NCI-H522
Assay text: NCI tumour cell line growth inhibition, 48 h
Activity calls are given as the source filed them. No stated cut-off is given here; in the data, active = GI50 up to about 1.1 µM and inactive = higher.
Outcome measure: GI50

[
  {
    "Compound": "O=S(=O)(Cc1nc2ccccc2s1)c1nc2ccccc2s1",
    "Target or test system": "NCI-H522",
    "GI50": "15.5 µM (inactive)"
  },
  {
    "Compound": "Cc1cc2c3c(ccc4[nH]cc(c43)CN2c2ccc(NS(C)(=O)=O)cc2)n1",
    "Target or test system": "NCI-H522",
    "GI50": "5.75 µM (inactive)"
  }
]

Q. Would you mind telling me what GI50 value was observed for CC(C)N(C(=O)C12C3C4C1C1C2C3C41C(=O)N(C(C)C)C(C)C)C(C)C (configuration not stated) ?
A. > 50 µM (inactive)

Q. Would you mind telling me what GI50 value was observed for `O=C(Cc1ccccc1)NS(=O)(=O)c1ccccc1` ?
A. > 100 µM (inactive)

Q. Would you mind telling me what GI50 value was observed for `COc1cccc2c1-c1c(OC)cccc1SS2` ?
A. 19.7 µM (inactive)

Q. Would you mind telling me what GI50 value was observed for C=C1C(=O)O[C@H]2C1C[C@H](O)[C@@]1(C)OC1CC[C@@]1(C)O[C@H]21 (some centres not stated) ?
A. 2.79 µM (inactive)

Q. Would you mind telling me what GI50 value was observed for `Cn1c(=S)c2nc(SCCCc3ccccc3)[nH]c2n(C)c1=O` ?
A. 4.33 µM (inactive)

###

Tested on: SF-295
Assay text: NCI tumour cell line growth inhibition, 48 h
Calls of active or inactive are those of the source. Rule as the data show it: active = GI50 up to about 1.1 µM and inactive = higher.
Below: a set of entries, each annotated with reported GI50.

# annotated cases, reported GI50 shown
[
  {
    "Compound": "O=C1c2ccccc2C2CNC1(O)c1ccccc12 (centres undefined)",
    "GI50": "> 100 µM (inactive)"
  },
  {
    "Compound": "CC(=O)OCC1OC(NC(=O)N(CCCl)N=O)C(OC(C)=O)C(OC(C)=O)C1OC(C)=O (centres undefined)",
    "GI50": "97.1 µM (inactive)"
  },
  {
    "Compound": "Nc1ccc(C(=O)N/C(=C\\c2ccc3c(c2)OCO3)c2nc3c(O)nc(S)nc3[nH]2)cc1",
    "GI50": "> 100 µM (inactive)"
  }
]

Consider the record given below.
Q. Would you mind telling me what GI50 value was observed for `O=C(O)CSc1nnc(CCCCCCCCc2nnc(SCC(=O)O)o2)o1` ?
A. > 100 µM (inactive)

###

Test system: SR
Assay text: NCI tumour cell line growth inhibition, 48 h
Activity calls are given as the source filed them. Cut-off read from the data, not from the text of the source: active = GI50 up to about 1.1 µM and inactive = higher.
Outcome measure: GI50

# annotated cases, reported GI50 shown
[
  {
    "Compound": "CCOC(=O)Cn1c(=O)c2nc(SC)sc2n(-c2ccccc2)c1=S",
    "Target or test system": "SR",
    "GI50": "> 100 µM (inactive)"
  },
  {
    "Compound": "N#Cc1c(N)sc2c1-c1ccccc1OC2",
    "Target or test system": "SR",
    "GI50": "19.1 µM (inactive)"
  },
  {
    "Compound": "Cc1ccc2c(O)cc(-c3ccc(Cl)cc3)nc2n1",
    "Target or test system": "SR",
    "GI50": "4.33 µM (inactive)"
  }
]

Q. Would you mind telling me what GI50 value was observed for `Cc1cc2oc(-c3ccccc3)c(C)c(=O)c2c2c1OC(C)(C)S2` ?
A. 29.6 µM (inactive)

Q. Would you mind telling me what GI50 value was observed for `Cc1nc2c(s/c(=N\N)n2-c2ccccc2)c(=O)[nH]1` ?
A. > 100 µM (inactive)

Q. Would you mind telling me what GI50 value was observed for CCc1cccc(C)c1NC(=O)CC1C(=O)Nc2ccccc2S1(=O)=O (stereo unspecified) ?
A. 5.65 µM (inactive)

Q. Would you mind telling me what GI50 value was observed for O=C(NC1C(=O)NC(CCc2ccccc2)NC1=O)OCc1ccccc1 (stereo unspecified) ?
A. > 100 µM (inactive)

Q. Would you mind telling me what GI50 value was observed for `CCn1c(CCl)nc2c1C(=O)c1ccccc1C2=O` ?
A. 0.401 µM (active)

Q. Would you mind telling me what GI50 value was observed for `O=C(CCC(=O)Nc1cccc(Cl)c1)CC(=O)c1ccc(F)cc1` ?
A. > 100 µM (inactive)

Q. Would you mind telling me what GI50 value was observed for NC(CCCCCP(=O)(O)O)C(=O)O (stereo unspecified) [AP-7] ?
A. > 100 µM (inactive)

###

Tested on: LOX IMVI
Assay text: NCI tumour cell line growth inhibition, 48 h
Activity calls are given as the source filed them. No stated cut-off is given here; in the data, active = GI50 up to about 1.1 µM and inactive = higher.
Your reply should match one of these outcome classes. class 1 = active, class 0 = inactive

[
  {
    "Compound": "CC1CC[C@@]2(OC1)OC1C[C@H]3[C@@H]4CC[C@H]5CC(OC6OC(CO)C(OC7OC(CO)C(O)C(O)C7O)C(O)C6O)CCC5(C)[C@H]4CCC3(C)C1[C@@H]2C (some centres not stated)",
    "Target or test system": "LOX IMVI",
    "Label": "class 0"
  }
]

Q. Which result was noted for this compound in the test: `O=C(O)CSc1nnc(CCCCCCCCc2nnc(SCC(=O)O)o2)o1`
A. class 0

Q. Which result was noted for this compound in the test: COc1cc([C@@H]2c3cc4c(cc3[C@@H](NCc3cccc(C#N)c3)C3COC(=O)[C@@H]32)OCO4)cc(OC)c1O (some centres not stated)
A. class 0

Q. Which result was noted for this compound in the test: `Cc1cc(C)c2c(c1)CN1CN2Cc2cc(C)cc(C)c21`
A. class 0

###

Tested on: T47D
Assay text: NCI tumour cell line growth inhibition, 48 h
Activity calls are given as the source filed them. Rule as the data show it: active = GI50 up to about 1.1 µM and inactive = higher.
Your reply should match one of these outcome classes. yes (1) (active), no (0) (inactive)

Worked examples, 3 compounds total:
[
  {
    "Compound": "Cc1nc2[nH]ncn2c(=O)c1CCCl",
    "Label": "no (0)"
  },
  {
    "Compound": "CC(=O)O[C@H]1CC[C@H]2[C@@H]3CCC4=C/C(=N/OCCN(C)C)CC[C@]4(C)[C@H]3CC[C@]12C",
    "Label": "no (0)"
  },
  {
    "Compound": "Cc1cc2nc(C=C(C(F)(F)F)C(F)(F)F)sc2cc1C",
    "Label": "yes (1)"
  }
]

Q. Which result was noted for this compound in the test: `O=C(O)CSc1nnc(CCCCCCCCc2nnc(SCC(=O)O)o2)o1`
A. no (0)

Q. Which result was noted for this compound in the test: `CC(C)=CCC/C(C)=C/Cc1c2c(c3oc(-c4ccc(O)c(O)c4)c(O)c(=O)c3c1O)C=CC(C)(C)O2`
A. no (0)

Q. Which result was noted for this compound in the test: `CC(C)(C)c1ccc(C(C)(C)C)c(N2C(=O)[C@@H]3[C@@H]4C=C[C@@H](C4)[C@]3(C)C2=O)c1`
A. no (0)

Q. Which result was noted for this compound in the test: CC1(C)OCC2OC3([C@@H]4OC(C)(C)O[C@H]4CO)OC(C)(C)OC3C2O1 (stereo not given in full)
A. no (0)

Q. Which result was noted for this compound in the test: CC1(C)CCC(C)(C)C1C(=O)NC(O)C(=O)O (stereo not given)
A. no (0)

Q. Which result was noted for this compound in the test: `CN(C)CCCN1c2ccccc2CCc2cc([N+](=O)[O-])ccc21`
A. no (0)

Q. Which result was noted for this compound in the test: `O=c1[nH]c(NCc2cccnc2)nc2[nH]cnc12`
A. no (0)

Q. Which result was noted for this compound in the test: COc1cc2c(cc1OC)C1C(O)C(OC)C(Br)C3(Br)CCN(C2)C13 (stereo not given)
A. no (0)

Q. Which result was noted for this compound in the test: `COc1cc2ccccc2c2cc([N+](=O)[O-])oc12`
A. no (0)

Q. Which result was noted for this compound in the test: `Sc1nc2c(c(-c3nc(S)nc4c3CCCCCCCCCC4)n1)CCCCCCCCCC2`
A. no (0)

Q. Which result was noted for this compound in the test: `Cc1nc2ccccc2c(=O)n1/N=C/c1ccc(N(C)C)cc1`
A. no (0)

Q. Which result was noted for this compound in the test: `C/C(=N\NC(=S)N(C)CCN(C)C(=S)N/N=C(\C)c1ccccn1)c1ccccn1`
A. no (0)

Q. Which result was noted for this compound in the test: NC(CCCCCP(=O)(O)O)C(=O)O (stereo not given)
A. no (0)

Q. Which result was noted for this compound in the test: `Oc1cc(Cl)cc2cccnc12`
A. no (0)

Q. Which result was noted for this compound in the test: `Cn1cc(S(=O)(=O)NC(=O)Nc2ccc(Cl)cc2)c2ccccc21`
A. no (0)

Q. Which result was noted for this compound in the test: `Cc1cc(NN)nc2[nH]nc(N)c12`
A. no (0)

Q. Which result was noted for this compound in the test: `COc1cc([N+](=O)[O-])ccc1NC1=CC(=O)CCC1`
A. no (0)

Q. Which result was noted for this compound in the test: `Cc1ccc2c(O)cc(-c3ccc(Cl)cc3)nc2n1`
A. yes (1)

Q. Which result was noted for this compound in the test: `COc1ccc(-c2oc3cc(OC(C)=O)cc(OC(C)=O)c3c(=O)c2OC)cc1`
A. no (0)

Q. Which result was noted for this compound in the test: `COC(=O)[C@@H]1C[C@]2(Br)c3ccccc3N(S(=O)(=O)c3ccccc3)[C@@H]2N1C(=O)OC`
A. no (0)

Q. Which result was noted for this compound in the test: `Nc1ccccc1NC(=O)c1ccc(CNC(=O)OCc2cccnc2)cc1`
A. yes (1)

Q. Which result was noted for this compound in the test: `COc1cc(C)cc(C(=O)OCc2ccccc2)c1C1=C(Cl)C(=O)C(Cl)=CC1=O`
A. no (0)
